system name: UniProt P22607
Sequence (P22607 23-806): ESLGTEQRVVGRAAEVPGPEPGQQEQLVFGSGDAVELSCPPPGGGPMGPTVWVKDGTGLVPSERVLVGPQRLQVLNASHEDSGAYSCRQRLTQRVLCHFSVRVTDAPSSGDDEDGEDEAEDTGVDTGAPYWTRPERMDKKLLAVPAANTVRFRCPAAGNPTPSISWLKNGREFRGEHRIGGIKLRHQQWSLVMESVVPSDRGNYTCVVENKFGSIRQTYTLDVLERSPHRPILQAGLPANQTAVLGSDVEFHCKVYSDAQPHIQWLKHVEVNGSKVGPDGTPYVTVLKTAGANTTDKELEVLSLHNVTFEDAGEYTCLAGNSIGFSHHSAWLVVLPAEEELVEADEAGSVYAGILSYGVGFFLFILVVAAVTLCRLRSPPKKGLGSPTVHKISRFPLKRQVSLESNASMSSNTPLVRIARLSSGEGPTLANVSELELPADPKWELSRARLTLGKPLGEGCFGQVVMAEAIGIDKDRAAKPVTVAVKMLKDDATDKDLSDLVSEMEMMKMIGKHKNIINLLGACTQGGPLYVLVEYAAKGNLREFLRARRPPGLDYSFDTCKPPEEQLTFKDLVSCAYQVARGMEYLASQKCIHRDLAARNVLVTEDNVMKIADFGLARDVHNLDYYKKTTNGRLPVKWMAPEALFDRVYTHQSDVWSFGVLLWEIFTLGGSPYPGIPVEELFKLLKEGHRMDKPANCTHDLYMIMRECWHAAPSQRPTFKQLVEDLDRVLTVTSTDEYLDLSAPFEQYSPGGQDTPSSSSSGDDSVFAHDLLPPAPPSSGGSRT
assay method text: FGFR3 (enzymatic assay), TR-FRET
Type: biochemical
experimental setup: 25 μM ATP; pIC50 = -log IC50 (M); read-out: FGFR3 pIC50 (converted)
# log10(IC50) per entry
// do not treat as linear: log10 of IC50, unit M

Consider the worked cases shown below.
| compound | readout kind | endpoint result |
| --- | --- | --- |
| COc1cc(OC)c(F)c(N(CCO)c2ccc3ncn(-c4cnn(C)c4)c(=O)c3c2)c1 [Compound 16] | log10(IC50) | -8.60 |
| COc1cc(OC)c(F)c(N(Cc2ncc[nH]2)c2ccc3ncn(-c4ccccc4)c(=O)c3c2)c1F [Compound 4] | log10(IC50) | -8.10 |
| COc1cc(OC)c(Cl)c(N(CCO)c2ccc3ncn(-c4ccccc4)c(=O)c3c2)c1Cl [Compound 5] | log10(IC50) | -7.60 |
| COc1cc(OC)cc(N(CCO)c2ccc3ncn(-c4cnn(C)c4)c(=O)c3c2)c1 [Compound 8] | log10(IC50) | -7.70 |

Okay, now this compound:
If you can, please state the reported log10(IC50) value of COc1cc(OC)c(F)c(N(CCNC(C)C)c2ccc3ncn(-c4ccccc4)c(=O)c3c2)c1F [Compound 2] . -7.60

###

system name: FGFR4 (h) (Homo sapiens)
Sequence (P22455 22-802): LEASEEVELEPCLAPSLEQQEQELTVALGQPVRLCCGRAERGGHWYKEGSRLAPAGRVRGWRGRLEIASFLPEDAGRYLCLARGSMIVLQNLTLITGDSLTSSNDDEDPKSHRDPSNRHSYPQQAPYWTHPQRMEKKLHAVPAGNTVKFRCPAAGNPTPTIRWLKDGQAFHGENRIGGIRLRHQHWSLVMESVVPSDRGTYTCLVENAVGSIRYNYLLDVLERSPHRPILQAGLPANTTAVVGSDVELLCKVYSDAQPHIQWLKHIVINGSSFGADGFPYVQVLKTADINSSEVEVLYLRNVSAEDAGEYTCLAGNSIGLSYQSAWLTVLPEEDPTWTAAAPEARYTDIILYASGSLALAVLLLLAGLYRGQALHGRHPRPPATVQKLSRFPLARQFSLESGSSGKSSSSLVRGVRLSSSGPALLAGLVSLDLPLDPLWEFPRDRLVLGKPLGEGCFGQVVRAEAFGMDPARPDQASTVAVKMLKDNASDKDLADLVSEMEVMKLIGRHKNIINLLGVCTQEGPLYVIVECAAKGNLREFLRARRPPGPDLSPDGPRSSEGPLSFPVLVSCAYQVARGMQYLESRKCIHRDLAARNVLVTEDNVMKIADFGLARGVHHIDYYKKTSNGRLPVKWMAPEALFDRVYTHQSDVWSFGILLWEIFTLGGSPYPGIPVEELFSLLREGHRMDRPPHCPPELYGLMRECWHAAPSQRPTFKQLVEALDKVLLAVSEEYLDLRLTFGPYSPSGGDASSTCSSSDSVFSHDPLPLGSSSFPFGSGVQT
assay method text: FGFR4 (enzymatic assay), TR-FRET
Format: biochemical
experimental setup: 5 μM ATP; pIC50 = -log IC50 (M); read-out: FGFR 4 pIC50 (converted)
readout kind: IC50 (M)
Give the quantity in M, number only.

See these solved cases before continuing.
| compound smiles | readout kind | result unit | endpoint result |
| --- | --- | --- | --- |
| COc1cc(OC)c(F)c(N(CCO)c2ccc3ncn(-c4ccccc4)c(=O)c3c2)c1F | IC50 | M | 3.98e-08 |
| COc1cc(OC)cc(N(CCO)c2ccc3ncn(-c4cnn(C)c4)c(=O)c3c2)c1 | IC50 | M | 1.58e-07 |
| COc1cc(OC)c(Cl)c(N(CCO)c2ccc3ncn(-c4ccccc4)c(=O)c3c2)c1Cl | IC50 | M | 5.01e-07 |
| COc1cc(OC)c(F)c(N(CCNC(C)C)c2ccc3ncn(-c4cnn(C)c4)c(=O)c3c2)c1F | IC50 | M | 2e-08 |
| COc1cc(OC)c(Cl)c(N(Cc2ncc[nH]2)c2ccc3ncn(-c4cnn(C)c4)c(=O)c3c2)c1Cl | IC50 | M | 1.26e-07 |
| COc1cc(OC)cc(N(CCO)c2ccc3ncn(-c4ccccc4)c(=O)c3c2)c1 | IC50 | M | 3.98e-06 |

Reported IC50, compound COc1cc(OC)c(Cl)c(N(CCO)c2ccc3ncn(-c4cnn(C)c4)c(=O)c3c2)c1Cl : ____ 2e-07

Consider the compound shown here: CNCCN(c1ccc2ncn(-c3cnn(C)c3)c(=O)c2c1)c1c(F)c(OC)cc(OC)c1F What is its recorded IC50? 2.51e-08

Requested field: IC50. Item: COc1cc(OC)c(F)c(N(CCNC(C)C)c2ccc3ncn(-c4cnn(C)c4)c(=O)c3c2)c1 3.16e-08

If you can, please state the reported IC50 value of COc1cc(OC)c(Cl)c(N(CCNC(C)C)c2ccc3ncn(-c4cnn(C)c4)c(=O)c3c2)c1Cl . 1.58e-07

Give the measured IC50 of COc1cc(OC)c(F)c(N(CCNC(C)C)c2ccc3ncn(-c4ccccc4)c(=O)c3c2)c1F . 3.98e-08

# get_value(readout='IC50', item= COc1cc(OC)cc(N(CCNC(C)C)c2ccc3ncn(-c4cnn(C)c4)c(=O)c3c2)c1 ) 5.01e-08

Quick check: IC50 of COc1cc(OC)c(F)c(N(CCO)c2ccc3ncn(-c4ccccc4)c(=O)c3c2)c1 ? 3.16e-07

What IC50 value was documented for this compound, COc1cc(OC)c(F)c(N(CCO)c2ccc3ncn(-c4cnn(C)c4)c(=O)c3c2)c1 ? 2.51e-08

###

The following molecules are listed with their measured Kd values.
system name: FGFR1 (Homo sapiens)
Construct: purchased DiscoveRx Corporation
Sequence (P11362 22-822): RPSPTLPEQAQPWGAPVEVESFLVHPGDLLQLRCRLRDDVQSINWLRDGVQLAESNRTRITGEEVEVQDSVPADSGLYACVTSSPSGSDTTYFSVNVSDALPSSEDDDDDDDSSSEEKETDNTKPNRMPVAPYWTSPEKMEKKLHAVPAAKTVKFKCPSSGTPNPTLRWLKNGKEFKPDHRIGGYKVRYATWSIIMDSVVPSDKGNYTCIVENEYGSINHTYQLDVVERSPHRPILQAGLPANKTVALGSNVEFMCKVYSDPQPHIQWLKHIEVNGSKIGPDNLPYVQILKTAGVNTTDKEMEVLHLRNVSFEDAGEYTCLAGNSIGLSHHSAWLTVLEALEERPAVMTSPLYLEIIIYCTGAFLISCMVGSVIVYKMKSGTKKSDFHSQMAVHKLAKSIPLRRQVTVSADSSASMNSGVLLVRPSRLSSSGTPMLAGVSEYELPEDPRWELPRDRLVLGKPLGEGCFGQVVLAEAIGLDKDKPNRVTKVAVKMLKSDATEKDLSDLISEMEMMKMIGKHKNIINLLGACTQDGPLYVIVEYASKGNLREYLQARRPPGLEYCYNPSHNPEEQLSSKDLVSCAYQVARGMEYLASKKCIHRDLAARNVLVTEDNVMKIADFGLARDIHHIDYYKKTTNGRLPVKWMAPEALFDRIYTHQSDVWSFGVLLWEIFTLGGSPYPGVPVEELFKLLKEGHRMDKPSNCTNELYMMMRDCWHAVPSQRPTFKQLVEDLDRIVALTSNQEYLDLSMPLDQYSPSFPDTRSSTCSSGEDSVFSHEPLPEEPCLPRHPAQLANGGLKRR
assay method text: Enzyme binding assay (KINOMEscan) FGFR1
experimental setup: FGFR1_pKd, pKd = -log Kd (M)
Unit M implied. Number only.

Field: example entries. Status: answers known.
| molecule | Kd [M] |
| --- | --- |
| COc1cc(OC)c(F)c(N(CCCO)c2ccc3ncn(C4CCOCC4)c(=O)c3c2)c1 | 2e-07 |
| COc1cc(OC)cc(N(Cc2ncc[nH]2)c2ccc3ncn(C4CCNCC4)c(=O)c3c2)c1 | 3.98e-07 |
| CNCCN(c1ccc2ncn(C3CCOCC3)c(=O)c2c1)c1cc(OC)cc(OC)c1F | 3.16e-08 |
| CNCCN(c1cc(OC)cc(OC)c1)c1ccc2ncn(C3CCOCC3)c(=O)c2c1 | 6.31e-07 |
| COc1cc(OC)c(F)c(N(CCCNC(C)C)c2ccc3ncn(C4CCNCC4)c(=O)c3c2)c1F | 6.31e-09 |
| COc1cc(OC)c(F)c(N(Cc2nccn2S(=O)(=O)N(C)C)c2ccc3ncn(-c4cccnc4)c(=O)c3c2)c1 | 1.58e-07 |
| COc1cc(OC)c(F)c(N(CCNC(C)C)c2ccc3ncn(-c4cccnc4)c(=O)c3c2)c1 | 5.01e-09 |
| COc1cc(OC)c(F)c(N(CCO)c2ccc3ncn(-c4ccncc4)c(=O)c3c2)c1F | 1.58e-08 |

Item: COc1cc(OC)cc(N(CCCNC(C)C)c2ccc3ncn(C4CCOCC4)c(=O)c3c2)c1 [Compound 73] Test system: FGFR1 (Homo sapiens) Read-out: Kd Value: ? 6.31e-08

Missing value: Kd, FGFR1 (Homo sapiens), entry COc1cc(OC)c(F)c(N(Cc2ncc[nH]2)c2ccc3ncn(C4CCOCC4)c(=O)c3c2)c1 . Fill in? 3.98e-08

Item CNCCN(c1ccc2ncn(C3CCNCC3)c(=O)c2c1)c1cc(OC)cc(OC)c1F with FGFR1 (Homo sapiens) - Kd? 3.16e-07

Query the reported Kd for FGFR1 (Homo sapiens); item: COc1cc(OC)cc(N(CCNC(C)C)c2ccc3ncn(-c4cccnc4)c(=O)c3c2)c1 6.31e-08

Please state recorded Kd (tested on FGFR1 (Homo sapiens)) of COc1cc(OC)c(F)c(N(Cc2ncc[nH]2)c2ccc3ncn(C4CCNCC4)c(=O)c3c2)c1 7.94e-08

###

system name: KDR (h) (Homo sapiens, UniProt P35968)
Sequence (P35968 20-1356): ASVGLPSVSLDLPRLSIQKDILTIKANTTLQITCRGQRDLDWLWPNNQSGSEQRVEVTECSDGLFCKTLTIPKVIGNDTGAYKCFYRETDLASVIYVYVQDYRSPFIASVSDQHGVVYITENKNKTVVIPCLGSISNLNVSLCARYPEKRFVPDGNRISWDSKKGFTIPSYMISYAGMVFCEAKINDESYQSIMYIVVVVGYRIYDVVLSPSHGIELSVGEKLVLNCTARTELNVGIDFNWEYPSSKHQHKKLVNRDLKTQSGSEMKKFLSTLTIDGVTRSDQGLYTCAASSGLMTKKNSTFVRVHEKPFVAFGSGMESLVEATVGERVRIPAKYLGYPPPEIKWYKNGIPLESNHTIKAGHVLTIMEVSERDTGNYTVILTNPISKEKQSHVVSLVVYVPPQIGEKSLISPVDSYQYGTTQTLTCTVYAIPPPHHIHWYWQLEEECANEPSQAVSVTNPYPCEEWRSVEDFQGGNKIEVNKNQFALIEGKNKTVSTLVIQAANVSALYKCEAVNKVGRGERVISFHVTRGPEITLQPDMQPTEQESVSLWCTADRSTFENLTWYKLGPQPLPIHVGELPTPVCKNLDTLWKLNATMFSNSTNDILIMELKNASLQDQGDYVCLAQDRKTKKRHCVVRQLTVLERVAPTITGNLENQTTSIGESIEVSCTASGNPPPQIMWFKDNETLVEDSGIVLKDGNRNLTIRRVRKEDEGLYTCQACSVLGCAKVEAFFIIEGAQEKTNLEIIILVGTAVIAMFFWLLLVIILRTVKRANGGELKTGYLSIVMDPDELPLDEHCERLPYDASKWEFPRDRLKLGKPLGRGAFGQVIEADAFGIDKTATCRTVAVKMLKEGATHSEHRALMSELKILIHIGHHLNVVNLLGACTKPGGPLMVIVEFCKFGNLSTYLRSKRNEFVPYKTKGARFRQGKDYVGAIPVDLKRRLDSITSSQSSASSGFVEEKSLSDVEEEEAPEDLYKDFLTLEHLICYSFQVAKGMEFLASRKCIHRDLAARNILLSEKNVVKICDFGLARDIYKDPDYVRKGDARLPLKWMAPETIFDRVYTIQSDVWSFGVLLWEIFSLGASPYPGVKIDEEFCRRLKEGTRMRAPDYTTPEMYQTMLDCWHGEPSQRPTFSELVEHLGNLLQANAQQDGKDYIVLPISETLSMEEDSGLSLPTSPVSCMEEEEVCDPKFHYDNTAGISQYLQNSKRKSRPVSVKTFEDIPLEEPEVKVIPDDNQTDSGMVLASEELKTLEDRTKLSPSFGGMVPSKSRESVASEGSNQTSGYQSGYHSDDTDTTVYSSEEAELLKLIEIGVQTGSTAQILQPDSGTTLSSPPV
assay method text: KDR (VEGFR2) (enzymatic assay), TR-FRET
Format: biochemical
experimental setup: 3 μM ATP; pIC50 = -log IC50 (M); read-out: VEGFR KDR pIC50 (converted)
readout kind: IC50 (M)
Field format: number, assumed M, no unit text.

Here is how some compounds turned out for IC50.
| compound smiles | system name | IC50 (M) |
| --- | --- | --- |
| COc1cc(OC)c(F)c(N(CCNC(C)C)c2ccc3ncn(-c4ccccc4)c(=O)c3c2)c1F | KDR (h) (Homo sapiens, UniProt P35968) | 2.51e-07 |
| COc1cc(OC)c(F)c(N(CCO)c2ccc3ncn(-c4ccccc4)c(=O)c3c2)c1F | KDR (h) (Homo sapiens, UniProt P35968) | 2.51e-07 |
| COc1cc(OC)c(F)c(N(Cc2ncc[nH]2)c2ccc3ncn(-c4cnn(C)c4)c(=O)c3c2)c1F | KDR (h) (Homo sapiens, UniProt P35968) | 1.26e-07 |
| COc1cc(OC)c(F)c(N(CCNC(C)C)c2ccc3ncn(-c4cnn(C)c4)c(=O)c3c2)c1F | KDR (h) (Homo sapiens, UniProt P35968) | 1.26e-07 |

--- query ---
# query: IC50 | item COc1cc(OC)c(F)c(N(Cc2ncc[nH]2)c2ccc3ncn(-c4cnn(C)c4)c(=O)c3c2)c1 | system: KDR (h) (Homo sapiens, UniProt P35968) 3.98e-07

###

system name: FGFR2 (h) (Homo sapiens)
Sequence (P21802 22-821): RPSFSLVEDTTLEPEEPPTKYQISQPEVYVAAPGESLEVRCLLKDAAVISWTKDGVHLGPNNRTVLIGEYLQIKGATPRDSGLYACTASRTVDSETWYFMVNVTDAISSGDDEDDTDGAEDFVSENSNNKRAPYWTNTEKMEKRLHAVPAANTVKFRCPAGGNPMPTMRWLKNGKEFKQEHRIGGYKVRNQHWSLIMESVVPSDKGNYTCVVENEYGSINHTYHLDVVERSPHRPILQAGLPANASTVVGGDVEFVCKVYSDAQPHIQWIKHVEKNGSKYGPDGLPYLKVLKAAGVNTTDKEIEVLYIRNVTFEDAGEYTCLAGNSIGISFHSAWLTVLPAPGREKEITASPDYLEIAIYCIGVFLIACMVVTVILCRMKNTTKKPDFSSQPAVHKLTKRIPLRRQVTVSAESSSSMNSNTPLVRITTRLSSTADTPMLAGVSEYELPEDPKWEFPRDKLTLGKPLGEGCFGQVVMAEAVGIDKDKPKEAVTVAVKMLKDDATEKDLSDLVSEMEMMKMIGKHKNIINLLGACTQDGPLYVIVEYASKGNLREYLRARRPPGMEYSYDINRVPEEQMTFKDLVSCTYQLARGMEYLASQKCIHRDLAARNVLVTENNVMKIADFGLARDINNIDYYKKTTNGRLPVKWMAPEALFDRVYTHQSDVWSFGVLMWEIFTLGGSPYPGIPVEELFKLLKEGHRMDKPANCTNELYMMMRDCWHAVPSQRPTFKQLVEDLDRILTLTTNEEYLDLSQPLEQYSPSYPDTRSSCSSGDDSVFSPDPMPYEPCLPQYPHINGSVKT
assay method text: FGFR2 (enzymatic assay), TR-FRET
Assay type: biochemical
experimental setup: 0.4 μM ATP; pIC50 = -log IC50 (M); read-out: FGFR 2 pIC50 (converted)
Recorded IC50 values for a group of compounds are listed next.
Please respond with the number in M and leave the unit unwritten.

| compound smiles | system name | result unit | IC50 |
| --- | --- | --- | --- |
| COc1cc(OC)cc(C(=O)c2ccc3ncn(-c4cnn(C)c4)c(=O)c3c2)c1 | FGFR2 (h) (Homo sapiens) | M | 7.94e-07 |
| COc1cc(OC)c(F)c(N(CCNC(C)C)c2ccc3ncn(-c4ccccc4)c(=O)c3c2)c1F | FGFR2 (h) (Homo sapiens) | M | 2.51e-08 |
| COc1cc(OC)c(F)c(N(CCNC(C)C)c2ccc3ncn(-c4cnn(C)c4)c(=O)c3c2)c1 | FGFR2 (h) (Homo sapiens) | M | 1e-08 |
| COc1cc(OC)c(F)c(N(CCNC(C)C)c2ccc3ncn(-c4cnn(C)c4)c(=O)c3c2)c1F | FGFR2 (h) (Homo sapiens) | M | 1.58e-08 |
| COc1cc(OC)c(F)c(N(Cc2ncc[nH]2)c2ccc3ncn(-c4cnn(C)c4)c(=O)c3c2)c1F | FGFR2 (h) (Homo sapiens) | M | 5.01e-09 |
| COc1cc(OC)cc(N(CCNC(C)C)c2ccc3ncn(-c4cnn(C)c4)c(=O)c3c2)c1 | FGFR2 (h) (Homo sapiens) | M | 6.31e-09 |
| COc1cc(OC)c(F)c(N(CCO)c2ccc3ncn(-c4cnn(C)c4)c(=O)c3c2)c1 | FGFR2 (h) (Homo sapiens) | M | 5.01e-09 |

Next compound, please.
// returns reported IC50 for input CNCCN(c1ccc2ncn(-c3cnn(C)c3)c(=O)c2c1)c1c(F)c(OC)cc(OC)c1F 1.26e-08
